assay: gradient 5% acetonitrile 3 min, to 50% in 2 min, to 85% in 15 min, held 3 min, 100 µL/min; conditions: column: Zorbax Extend-C18 2.1 x 50 mm; eluents: water / acetonitrile, 0.1% formic acid
measurementType: RP-LC retention time (s)
Respond with the bare value in s.

# lookup: RP-LC retention time of COc1ccc(NS(=O)(=O)/C=C/c2ccccc2)cc1N1CCCC1=O
721

RP-LC retention time lookup needed for CCOc1ccc2nc(Nc3ncc4c(n3)CC(c3ccccc3)CC4=O)nc(C)c2c1 (centres undefined) , thanks.
831

Consider the compound COc1ccccc1C(=O)Nc1nc(-c2ccc3c(c2)NC(=O)CO3)c(C)s1 and give its measured RP-LC retention time.
889

---

Here the recorded RP-LC retention time is given for each entry.
experiment: gradient 5% acetonitrile 3 min, to 50% in 2 min, to 85% in 15 min, held 3 min, 100 µL/min; conditions: column: Zorbax Extend-C18 2.1 x 50 mm; eluents: water / acetonitrile, 0.1% formic acid
Unit s implied. Number only.

1. CCc1ccc(S(=O)(=O)c2cnc(N3CCCC(C)C3)nc2N)cc1 (stereo not given); 1150
2. CCOC(=O)c1cn(CC(=O)Nc2cc(F)ccc2F)nn1; 740
3. COCCCNS(=O)(=O)c1ccccc1-c1nc(-c2ccc(F)cc2)no1; 905
4. CCc1nc2ccccc2c(=O)n1Cc1noc(-c2cncc(Br)c2)n1; 896
5. O=C(CCc1nnn2c1CN(C(=O)c1ccoc1)CC2)N1CCOCC1; 580

Given Cc1cccc(NC(=O)Cn2cnc3c(c2=O)CCCC3)c1 , state its recorded RP-LC retention time.
706

Which measured RP-LC retention time value corresponds to COc1ccc(NC(=O)N2CCC(CN3CCCC(C)C3)CC2)cc1Cl (stereo not given) ?
629

Looking for the measured RP-LC retention time of CCn1cc(S(=O)(=O)N2CC(c3nc(CCOCc4ccccc4)no3)C2)cn1 , can you help?
856

Would you kindly share the measured RP-LC retention time for CN1C(=O)c2cc(S(=O)(=O)Nc3ccc(F)cc3Cl)ccc2Oc2cccnc21 ?
943

Would you mind telling me what RP-LC retention time value was observed for CCN1CCN(C(=O)c2nnc(-c3ccc(S(=O)(=O)N4CCCC4)cc3)o2)CC1 ?
623

---

test: gradient 5% acetonitrile 3 min, to 50% in 2 min, to 85% in 15 min, held 3 min, 100 µL/min; conditions: column: Zorbax Extend-C18 2.1 x 50 mm; eluents: water / acetonitrile, 0.1% formic acid
Label label 1 when RP-LC retention time < 700 s; otherwise label 0.

1. Cc1ccc(OCC(=O)N2CCCCC2c2nncn2CC2CC2)cc1 (centres undefined); label 0
2. Cc1ccccc1S(=O)(=O)N1CC[C@@H]2CN(Cc3cccnc3)[C@@H]2C1; label 1
3. CN(C)C(=O)CN1CCN(c2cc(C(=O)O)c3cc(NC(=O)c4ccccc4F)ccc3n2)CC1; label 1
4. CCOc1cccc(-c2noc(Cn3nc(-c4ccc5c(c4)OCO5)ccc3=O)n2)c1; label 0
5. Cc1ccc(CN2N=C(C(=O)N3CCCCC3)S(=O)(=O)c3ccccc32)cc1; label 0
6. O=C1NC(=S)S/C1=C\c1cc(Br)ccc1OCc1ccccc1Br; label 0
7. Cc1ccc(C(=O)N2C[C@@H]3C[C@H](NC(=O)c4cccs4)[C@H]2C3)cn1; label 1
8. Cc1c(-c2nnc(C(=O)NCCN3CCCCCC3)o2)oc2ccccc12; label 1

Problem: For the molecule Cc1cc(C)c(S(=O)(=O)N2CCC(n3cnc4c(C)cccc4c3=O)CC2)cc1C , is RP-LC retention time under 700 s?
label 0

---

assay: gradient 5% acetonitrile 3 min, to 50% in 2 min, to 85% in 15 min, held 3 min, 100 µL/min; settings: column: Zorbax Extend-C18 2.1 x 50 mm; eluents: water / acetonitrile, 0.1% formic acid
The threshold is inclusive: RP-LC retention time of exactly 700 s counts as 1; values below receive 0.

Before answering, review these 3 worked examples.
1) Cc1ccc(-c2cn3ccn(-c4ccc(F)cc4)c(=O)c3n2)cc1; 1
2) COc1cccc(CN2CCC3(CC2)CC(O)CCO3)n1 (stereo not given); 0
3) O=C(CSc1nc(-c2cccc([N+](=O)[O-])c2)cs1)N1CCOCC1; 1

Turning now to a further compound:
Reported RP-LC retention time at or above 700 s? CCOC(=O)c1noc2nc(C)nc(NC(C)c3ccccc3)c12 (stereo not given)
1

---

experiment: gradient 5% acetonitrile 3 min, to 50% in 2 min, to 85% in 15 min, held 3 min, 100 µL/min; conditions: column: Zorbax Extend-C18 2.1 x 50 mm; eluents: water / acetonitrile, 0.1% formic acid
RP-LC retention time by entry:
Please reply with the bare figure in s and do not write the unit itself.

1) COCCNc1c(-c2ccc(F)cc2)nc2sc(C(=O)N(C)C)c(C)n12; 702
2) CCc1nn2c(CNC(=O)c3ccccn3)c(-c3ccccc3)nc2s1; 891

Look up RP-LC retention time for this compound: O=C(NCc1cccnc1)C(=O)NCc1ccc2c(c1)OCO2
588

Consider the compound Cc1ccc2c(c1)N(C(=O)Cn1cnc3c(sc4nc(-c5ccccc5)ccc43)c1=O)CCO2 and give its measured RP-LC retention time.
1130

Item Cc1c(C(=O)OCC(=O)Nc2cccc(Cl)c2)nnn1-c1ccccc1 has what recorded RP-LC retention time?
946

---

experiment: gradient 5% acetonitrile 3 min, to 50% in 2 min, to 85% in 15 min, held 3 min, 100 µL/min; conditions: column: Zorbax Extend-C18 2.1 x 50 mm; eluents: water / acetonitrile, 0.1% formic acid
The compounds listed here are annotated with their RP-LC retention time.
Just the number please, in s, no unit attached.

# annotated cases, reported RP-LC retention time shown
1) O=S(=O)(NCC1CCN(Cc2ccco2)CC1)c1ccc(F)c(Cl)c1; 575
2) O=C(Nc1cccc(Br)c1)C1CC(=O)N(CCc2c[nH]c3ccc(F)cc23)C1 (stereo not given); 890
3) Cc1ccc(NC(=O)Cn2c(=O)n(-c3ccccc3)c3ncccc32)cc1; 840

Returns the measured RP-LC retention time for the input compound. Input: COc1ccc(OC)c(NC(=O)C2CCN(S(=O)(=O)c3cc(-c4noc(C)n4)cs3)CC2)c1
931

Please report the recorded RP-LC retention time for O=C(c1cccs1)N1CCN(S(=O)(=O)c2cc(-c3noc(C4CCC4)n3)cs2)CC1 .
998

---

Reported RP-LC retention time values for the following molecules.
experiment: gradient 5% acetonitrile 3 min, to 50% in 2 min, to 85% in 15 min, held 3 min, 100 µL/min; settings: column: Zorbax Extend-C18 2.1 x 50 mm; eluents: water / acetonitrile, 0.1% formic acid

1) CCc1noc(NC(C)=O)c1-c1ccc(C)c(S(=O)(=O)Nc2ccc3c(c2)OCCO3)c1; 784 s
2) COC(=O)c1ccc(NS(=O)(=O)c2cccc(S(C)(=O)=O)c2)cc1; 706 s

Reported RP-LC retention time for CCN1C(SCC(=O)N2CCCC2)=NS(=O)(=O)c2ccccc21 : what is it?
684 s

May I ask what RP-LC retention time has been recorded for Cc1ccsc1C(=O)N1CCC2(CC1)CC(OCC1CC1)CCO2 (stereo not given) ?
851 s

# RP-LC retention time lookup, item O=C(Nc1ccccc1Cl)N1CCN(c2cnn3cnnc3c2)CC1
625 s

Which RP-LC retention time is reported for this molecule? CCc1cccc(NC(=O)Cn2cc(C(=O)N3CCCC3)c(=O)c3ccc(C)nc32)c1
753 s

Quick one: RP-LC retention time for Cc1nc2cc(-c3noc(-c4ccc5ccccc5n4)n3)ccc2o1 ?
998 s

Item O=C(Cn1nc(C2CC2)cc1C(=O)N1CCCC1)NCc1cccc(Cl)c1 has what recorded RP-LC retention time?
782 s

Look up RP-LC retention time for this molecule: COC(=O)C1=C(COc2ccc(C)cc2)NC(=O)NC1c1ccc(OC)c(OC)c1 (stereo not given)
976 s

For the molecule shown here, CCc1cccc(C)c1Nc1c(-c2ccc(C)cc2)nc2cnccn12 , give the reported RP-LC retention time.
996 s

---

assay: gradient 5% acetonitrile 3 min, to 50% in 2 min, to 85% in 15 min, held 3 min, 100 µL/min; settings: column: Zorbax Extend-C18 2.1 x 50 mm; eluents: water / acetonitrile, 0.1% formic acid
Hi, to clarify the labels: Satisfied covers RP-LC retention time from 700 s upward, Not satisfied covers anything below 700 s.

1. O=C1/C(=C\c2ccc(O)c(O)c2)Oc2c1ccc(O[C@@H]1O[C@H](CO)[C@@H](O)[C@H](O)[C@H]1O)c2O; Not satisfied
2. CCOC(=O)c1nc(Nc2ccc(F)cc2Cl)c2ccccc2n1; Satisfied
3. CCOc1ccccc1NC(=O)C1CCN(S(=O)(=O)c2ccc3c(c2)sc(=O)n3CC)CC1; Satisfied
4. Cn1cc(S(=O)(=O)N2CCC(C(=O)N3CCOCC3)CC2)cc1C(=O)N1CCCC1; Not satisfied
5. O=C(CCc1nc2ccccc2n(CC(=O)Nc2cc(F)cc(F)c2)c1=O)NCc1ccccc1; Satisfied

Textbook exercise: given the entry Cc1cccc(NC(=O)C2CCCN(S(=O)(=O)N3CCC(C)CC3)C2)c1C (centres undefined) , state whether its RP-LC retention time is greater than or equal to 700 s.
Satisfied

Determine whether measured RP-LC retention time meets or exceeds 700 s for O=C(Nc1cc(-c2ccccn2)no1)C1CC1
Not satisfied

Determine whether measured RP-LC retention time meets or exceeds 700 s for CCN1C(=O)COc2ccc(-c3noc(-c4ccc(C)cc4)n3)cc21
Satisfied

Say whether CC(C)NC(=O)c1ccc2c(c1)nc(CN(C)C(=O)Nc1ccc3c(c1)OCCO3)n2C shows RP-LC retention time of 700 s or more.
Not satisfied

Check this molecule for RP-LC retention time at or above 700 s: CCc1ccccc1NC(=O)C1CCCN(S(=O)(=O)c2cn(C(C)C)cn2)C1 (centres undefined)
Satisfied

Entry O=C1CN(S(=O)(=O)c2cccnc2)C2(CCCC2)CN1CC1CC1 : is its RP-LC retention time no less than 700 s?
Satisfied

State whether the measured RP-LC retention time reaches 700 s, counting equality as reaching it, for CC(C)(C)c1csc(-c2csc(S(=O)(=O)Nc3ccc(Cl)cc3)c2)n1
Satisfied

Identify whether the reported RP-LC retention time of the following molecule is 700 s or greater: Cc1nn(-c2ccc(N3CCCCC3)nn2)c(C)c1CCC(=O)N1CCN(c2ncccn2)CC1
Not satisfied
